FYI, the data here is from ChEMBL document CHEMBL1128642.

// bioavailability lookup, one value per entry
# test.protocol: Oral bioavailability in dog
# Assay type: ADME, organism-based, Canis lupus familiaris
# run.parameters: in vivo
endpoint.label: bioavailability (%)

# smiles.repr, unit.label, lt.gt.eq, test.value
data = [
    ("COc1ccc(-n2cnnn2)cc1CN[C@H]1CCCN[C@H]1c1ccccc1", "%", "=", 76),
    ("COc1ccc(S(C)(=O)=O)cc1CN[C@H]1CCCN[C@H]1c1ccccc1", "%", "=", 42),
    ("COc1ccc(-c2ccoc2)cc1CN[C@H]1CCCN[C@H]1c1ccccc1", "%", "<", 10),
    ("COc1ccccc1CN[C@H]1CCCN[C@H]1c1ccccc1", "%", "<", 10),
]

* * *

In this section, each of the compounds is paired with its reported logD.
# test.protocol: Partition coefficient (logD)
# Assay type: physicochemical
# run.parameters: octanol/water

# smiles.repr, logD
rows = [
    ("COc1ccc(-n2cnnn2)cc1CN[C@H]1CCCN[C@H]1c1ccccc1", 0.8),
    ("COc1ccc(-n2ncnn2)cc1CN[C@H]1CCCN[C@H]1c1ccccc1", 0.8),
]

* * *

# Species: Canis familiaris
# test.protocol: In vitro metabolic turnover (% parent lost) after exposure to dog hepatic microsomes (hepatic first pass metabolism)
# Type: functional
# run.parameters: Canis lupus familiaris, Liver
Everything with Metabolic turnover lower than 80% is not fulfilled; everything else, including exactly 80%, is fulfilled.

# smiles.repr, label
records = [
    ("COc1ccc(-c2ccncc2)cc1CN[C@H]1CCCN[C@H]1c1ccccc1", "fulfilled"),
    ("COc1ccc(SC)cc1CN[C@H]1CCCN[C@H]1c1ccccc1", "fulfilled"),
    ("COc1ccc(-c2nnn(C)n2)cc1CN[C@H]1CCCN[C@H]1c1ccccc1", "not fulfilled"),
    ("COc1ccc(-n2ncnn2)cc1CN[C@H]1CCCN[C@H]1c1ccccc1", "not fulfilled"),
    ("COc1ccc(-c2ccoc2)cc1CN[C@H]1CCCN[C@H]1c1ccccc1", "fulfilled"),
    ("COc1ccc(-n2cncn2)cc1CN[C@H]1CCCN[C@H]1c1ccccc1", "not fulfilled"),
    ("COc1ccc(-c2c(C)noc2C)cc1CN[C@H]1CCCN[C@H]1c1ccccc1", "fulfilled"),
    ("COc1ccc(-c2nccs2)cc1CN[C@H]1CCCN[C@H]1c1ccccc1", "not fulfilled"),
    ("COc1ccc(-c2ccco2)cc1CN[C@H]1CCCN[C@H]1c1ccccc1", "fulfilled"),
    ("COc1ccc(-n2cnnn2)cc1CN[C@H]1CCCN[C@H]1c1ccccc1", "not fulfilled"),
    ("COc1ccc(-c2nnnn2C)cc1CN[C@H]1CCCN[C@H]1c1ccccc1", "not fulfilled"),
    ("COc1ccc(-c2ccsc2)cc1CN[C@H]1CCCN[C@H]1c1ccccc1", "fulfilled"),
    ("COc1ccc(-c2cncnc2)cc1CN[C@H]1CCCN[C@H]1c1ccccc1", "not fulfilled"),
    ("COc1ccccc1CN[C@H]1CCCN[C@H]1c1ccccc1", "fulfilled"),
    ("COc1ccc(-c2nccn2C)cc1CN[C@H]1CCCN[C@H]1c1ccccc1", "fulfilled"),
    ("COc1ccc(S(C)(=O)=O)cc1CN[C@H]1CCCN[C@H]1c1ccccc1", "not fulfilled"),
    ("COc1ccc(Br)cc1CN[C@H]1CCCN[C@H]1c1ccccc1", "not fulfilled"),
]

* * *

# target.of.assay: Substance-P receptor (Homo sapiens)
# Sequence (P25103 whole entry): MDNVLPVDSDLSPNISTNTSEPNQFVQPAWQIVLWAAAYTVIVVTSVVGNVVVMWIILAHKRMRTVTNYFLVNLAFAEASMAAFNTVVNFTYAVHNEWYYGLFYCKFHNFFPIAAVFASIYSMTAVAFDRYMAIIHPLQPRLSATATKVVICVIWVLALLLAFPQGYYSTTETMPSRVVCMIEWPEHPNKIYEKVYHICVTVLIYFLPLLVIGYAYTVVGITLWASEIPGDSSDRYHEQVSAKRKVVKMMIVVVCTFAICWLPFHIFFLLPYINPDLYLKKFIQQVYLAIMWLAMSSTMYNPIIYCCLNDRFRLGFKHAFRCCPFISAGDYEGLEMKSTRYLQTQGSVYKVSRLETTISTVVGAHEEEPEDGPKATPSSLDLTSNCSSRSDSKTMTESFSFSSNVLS
pKi: −log10 of the molar value.
A collection of compounds and their measured pKi
endpoint.label: pKi

# smiles.repr, endpoint.label, test.value
rows = [
    ("COc1ccc(SC)cc1CN[C@H]1CCCN[C@H]1c1ccccc1", "pKi", 10.10),
    ("COc1ccc(-c2c(C)noc2C)cc1CN[C@H]1CCCN[C@H]1c1ccccc1", "pKi", 10.30),
    ("COc1ccc(-n2cncn2)cc1CN[C@H]1CCCN[C@H]1c1ccccc1", "pKi", 9.80),
    ("COc1ccc(-c2nnn(C)n2)cc1CN[C@H]1CCCN[C@H]1c1ccccc1", "pKi", 8.60),
    ("COc1ccc(-c2cncnc2)cc1CN[C@H]1CCCN[C@H]1c1ccccc1", "pKi", 9.80),
]

* * *

# test.protocol: Lipophilicity
# Type: physicochemical
# run.parameters: octanol/water
Measured logD accompanies every entry in the list below.
endpoint.label: logD

# smiles.repr, endpoint.label, test.value
rows = [
    ("COc1ccc(-c2c(C)noc2C)cc1CN[C@H]1CCCN[C@H]1c1ccccc1", "logD", 2.3),
    ("COc1ccc(-n2cncn2)cc1CN[C@H]1CCCN[C@H]1c1ccccc1", "logD", 1.2),
    ("COc1ccc(SC)cc1CN[C@H]1CCCN[C@H]1c1ccccc1", "logD", 2),
    ("COc1ccc(-c2nnnn2C)cc1CN[C@H]1CCCN[C@H]1c1ccccc1", "logD", 0.5),
    ("COc1ccc(Br)cc1CN[C@H]1CCCN[C@H]1c1ccccc1", "logD", 2.5),
    ("COc1ccc(S(C)(=O)=O)cc1CN[C@H]1CCCN[C@H]1c1ccccc1", "logD", 0.2),
    ("COc1ccc(-c2ccco2)cc1CN[C@H]1CCCN[C@H]1c1ccccc1", "logD", 3),
]

* * *

pKi: −log10 of the molar value.
As a worked illustration, we turn to pKi data collected for Substance-P receptor (Homo sapiens).

# smiles.repr, pKi
rows = [
    ("COc1ccc(-c2ccco2)cc1CN[C@H]1CCCN[C@H]1c1ccccc1", 9.30),
    ("COc1ccc(-c2ccoc2)cc1CN[C@H]1CCCN[C@H]1c1ccccc1", 10.20),
    ("COc1ccc(-c2nnnn2C)cc1CN[C@H]1CCCN[C@H]1c1ccccc1", 9.70),
    ("COc1ccc(-c2ccncc2)cc1CN[C@H]1CCCN[C@H]1c1ccccc1", 10.20),
    ("COc1ccc(-n2ncnn2)cc1CN[C@H]1CCCN[C@H]1c1ccccc1", 9.90),
    ("COc1ccc(-c2c(C)nn(C)c2C)cc1CN[C@H]1CCCN[C@H]1c1ccccc1", 9.10),
]

* * *

# test.protocol: Lipophilicity
# Assay type: physicochemical
# run.parameters: octanol/water
endpoint.label: logD

# smiles.repr, endpoint.label, test.value
records = [
    ("COc1ccc(-c2ccncc2)cc1CN[C@H]1CCCN[C@H]1c1ccccc1", "logD", 2.2),
    ("COc1ccc(F)cc1CN[C@H]1CCCN[C@H]1c1ccccc1", "logD", 1.8),
    ("COc1ccc(-c2ccoc2)cc1CN[C@H]1CCCN[C@H]1c1ccccc1", "logD", 2.5),
    ("COc1ccc(-c2c(C)nn(C)c2C)cc1CN[C@H]1CCCN[C@H]1c1ccccc1", "logD", 2.3),
    ("COc1ccc(-c2cncnc2)cc1CN[C@H]1CCCN[C@H]1c1ccccc1", "logD", 1.4),
    ("COc1ccc(-c2nccs2)cc1CN[C@H]1CCCN[C@H]1c1ccccc1", "logD", 2.3),
    ("COc1ccc(-c2nccn2C)cc1CN[C@H]1CCCN[C@H]1c1ccccc1", "logD", 1.2),
    ("COc1ccc(-c2ccsc2)cc1CN[C@H]1CCCN[C@H]1c1ccccc1", "logD", 3.1),
    ("COc1ccc(-c2nnn(C)n2)cc1CN[C@H]1CCCN[C@H]1c1ccccc1", "logD", 1.4),
    ("COc1ccccc1CN[C@H]1CCCN[C@H]1c1ccccc1", "logD", 1.4),
]

* * *

# Test system: Mustela putorius furo
# test.protocol: Compound was evaluated in vivo for its antiemetic activity in ferret, which was administered subcutaneously immediately after (0 ptt) induction of emesis
# Format: functional
endpoint.label: ID90 (mg/kg)

# compound, target.of.assay, unit.label, lt.gt.eq, test.value
measured = [
    ("COc1ccccc1CN[C@H]1CCCN[C@H]1c1ccccc1 [CP-99994]", "Mustela putorius furo", "mg/kg", "=", 1),
    ("COc1ccc(-n2cncn2)cc1CN[C@H]1CCCN[C@H]1c1ccccc1", "Mustela putorius furo", "mg/kg", "=", 3),
    ("COc1ccc(-c2nccs2)cc1CN[C@H]1CCCN[C@H]1c1ccccc1", "Mustela putorius furo", "mg/kg", ">", 3),
    ("COc1ccc(-n2cnnn2)cc1CN[C@H]1CCCN[C@H]1c1ccccc1", "Mustela putorius furo", "mg/kg", "=", 0.1),
    ("COc1ccc(-c2ccsc2)cc1CN[C@H]1CCCN[C@H]1c1ccccc1", "Mustela putorius furo", "mg/kg", ">", 3),
    ("COc1ccc(S(C)(=O)=O)cc1CN[C@H]1CCCN[C@H]1c1ccccc1", "Mustela putorius furo", "mg/kg", ">", 10),
    ("COc1ccc(-c2cncnc2)cc1CN[C@H]1CCCN[C@H]1c1ccccc1", "Mustela putorius furo", "mg/kg", "=", 3),
    ("COc1ccc(SC)cc1CN[C@H]1CCCN[C@H]1c1ccccc1", "Mustela putorius furo", "mg/kg", "=", 1),
    ("COc1ccc(-c2ccncc2)cc1CN[C@H]1CCCN[C@H]1c1ccccc1", "Mustela putorius furo", "mg/kg", "=", 0.3),
    ("COc1ccc(-c2ccoc2)cc1CN[C@H]1CCCN[C@H]1c1ccccc1", "Mustela putorius furo", "mg/kg", "=", 0.3),
    ("COc1ccc(F)cc1CN[C@H]1CCCN[C@H]1c1ccccc1", "Mustela putorius furo", "mg/kg", "=", 3),
]
